Hello, the source for this data is PubChem BioAssay AID504408, in case you need it.

A collection of compounds and their measured activation
test description: HSF-1 activators, primary screen, NIH3T3-HGL cells, MG132 stress, luminescence, single point (AID 504408);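 also: 0% = median of the neutral control wells and 100% = twice that signal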
experimental setup: NIH3T3-HGL HSF-1 luciferase reporter, MG132, 8 h; at 9 µM; hits give high values; 100% = twice DMSO control signal
Among all 300,000 compounds or so, about 5,200 (1.7%) were called active. The entries come from a sample that favours actives as a whole.

compound	activation [%]
Cc1ccc(N2C(=O)SC(N(CC(=O)O)c3ccc(C)cc3)C2=O)cc1 (stereo not given)	96.4
CCOC(=O)C/C(C)=N\Nc1ccc([N+](=O)[O-])cc1[N+](=O)[O-]	1.63
Cc1ccc(S(=O)(=O)N2CCN(C(=O)Cc3sc(C)nc3-c3ccc(F)cc3)CC2)c(C)c1	5.21
COc1ccccc1NC(=O)Nc1nc(CC(=O)Nc2ccccc2F)cs1	23.4
Cc1csc(NC(=O)c2ccc(-c3ccc(Cl)cc3Cl)o2)n1	3.06
O=C(CNC(=O)C12CC3CC(CC(C3)C1)C2)OCC(=O)N1CCCCC1	10.8
CN(C)CCn1c2c(c(SCC(=O)Nc3ccccc3C(F)(F)F)nc1=O)CCCC2	-8.06
Cc1cc(C)c(C#N)c(SCc2[nH]nc3c2C(c2ccccc2)C(C#N)=C(N)O3)n1 (stereo not given)	64
Cc1ccc(S(=O)(=O)N(C)C)cc1NC(=O)COC(=O)C1COc2ccccc2O1 (stereo not given)	-5.78
COc1ccc(-n2c(SCC(=O)NCc3ccco3)nnc2-c2c[nH]c3ccccc23)cc1	7.75
CCOC(=O)c1c(NC(=O)C2CC=CCC2C(=O)O)sc(C)c1CC (stereo not given)	-15
CN(/N=C/c1ccccc1)C(=S)c1ccccc1	9.01
O=C(COC(=O)CNS(=O)(=O)c1ccc(F)c(F)c1F)NC1CCCC1	-12.4
Cc1ccc(C(=O)CN2C(=O)NC3(CCc4ccccc43)C2=O)c(C)c1 (stereo not given)	0.629
Cc1cccc(N2C(=O)SC(N(CC(=O)O)c3cccc(C)c3)C2=O)c1 (stereo not given)	17.2
O=[N+]([O-])c1ccccc1/C=C/CN1CCC(O)CC1	-18.5
CSc1ncc(Sc2ccccc2)c(C(=O)O)n1	21.8
Cc1cc(C)c2c3c(sc2n1)C(c1ccccc1)C(C#N)=C(N)O3 (stereo not given)	-10.5
CCOC(=O)C1=C(c2ccccc2)NC(=O)NC1c1cc(OCC)c(O)c([N+](=O)[O-])c1 (stereo not given)	29.6
Cc1ccc(CC2S/C(=C(/C#N)C(=O)N3CCOCC3)N(c3ccccc3)C2=O)cc1 (stereo not given)	19.9
CCC(CC)c1nnc(NC(=O)C2=COCCO2)s1	13.8
COC(=O)CN1C(=S)N(c2ccccc2)C(=O)C1CC(=O)Nc1ccc(Cl)cc1 (stereo not given)	4.42
COc1cc(SC)ccc1C(=O)Nc1cc(C)ccn1	55.7
Cc1ccc(Cn2c(C)nc3c(c2=O)c2nc4ccccc4nc2n3Cc2ccco2)cc1	100
O=[N+]([O-])c1ccccc1/C=C/CN1CCCC(CO)C1 (stereo not given)	-4.33
CN1C(C(=O)NCc2ccco2)CC2Cn3c(nc4ccccc43)C21 (stereo not given)	-8.57
CC(C)C(=O)OCC(=O)Nc1ccc2c(c1)CCC2	41.4
O=C(COC(=O)c1cccc(Cl)c1)Nc1ccc2[nH]c(=O)[nH]c2c1	9.55
Cc1ccc(S(=O)(=O)N(C)C)cc1NC(=O)COC(=O)c1c(C)noc1C	63.2
O=C(Nc1ccc2c(c1)CCC2)c1ccc(Br)s1	71
CC1CCCCC1NC(=O)/C(C#N)=C/C=C/c1ccccc1[N+](=O)[O-] (stereo not given)	53.4
CCOC(=O)C1=C(CN2CCc3ccccc32)NC(=O)NC1c1cccc([N+](=O)[O-])c1 (stereo not given)	39.3
Cc1ccc(S(=O)(=O)N(C)C)cc1NC(=O)COC(=O)/C=C/c1cccs1	-10.8
CC1CCN(C(=O)c2cccc(S(=O)(=O)N3CCCc4ccccc43)c2)CC1	9.01
Cn1c2ccccc2c(=O)c2c(=O)n(Cc3ccco3)c(COc3ccccc3)nc21	17.1

---

test description: HSF-1 activators, primary screen, NIH3T3-HGL cells, MG132 stress, luminescence, single point (AID 504408);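 also: 0% = median of the neutral control wells and 100% = twice that signal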
experimental setup: NIH3T3-HGL HSF-1 luciferase reporter, MG132, 8 h; at 9 µM; hits give high values; 100% = twice DMSO control signal
In all, about 300,000 compounds went through this assay and about 5,200 (1.7%) were called active. Many of the other results were omitted from the sample, so actives are more common in it than they were.
A collection of compounds and their measured activation

compound	unit abbrev	activation
COc1ccc(C(=O)NC(C)CCc2ccccc2)c(OC)c1 (centres undefined)	%	15.4
CCOC(=O)N1CCN(C(=O)c2ccc3c(c2)N(Cc2ccc(C)cc2)CCS3)CC1	%	9.82
O=C(COC(=O)c1ncc(Cl)c(Cl)c1Cl)NNC(=O)c1ccccc1	%	3.3
Cc1noc(NS(=O)(=O)c2ccc(N/C=C/C(=O)c3ccccc3)cc2)c1C	%	-20.4
CSc1nc2ccc(NC(=O)c3c(F)cccc3F)cc2s1	%	59.4
COc1ccc(NC(=O)CN(C)C(=O)c2cc(-c3ccc(C)o3)nc3ccccc23)cc1	%	19.7
COc1ccc(C(C#N)(CC(=O)O)c2cnccn2)cc1OC (centres undefined)	%	-7.73
COc1ccc(C(=O)CCC(=O)Nc2cccnc2)c(OC)c1	%	11.9
Cc1ccc(-n2ncc3c(N4CCN(c5ccc(F)cc5)CC4)ncnc32)c(C)c1	%	57.9
COc1ccc(Cc2nnc(SCC(=O)Nc3ccc(C)c(Cl)c3)[nH]c2=O)cc1	%	-4.89
COC(=O)c1cc(NC(=O)Cc2ccccc2[N+](=O)[O-])ccc1Cl	%	-11.7
Cc1ccc(-c2c3c(=O)n(C)c(=O)n(C)c3cn2-c2ccccc2O)cc1	%	3.5
C(=N\Nc1ccc2ccccc2n1)/c1ccc2c(c1)OCO2	%	-41.8
O=C1c2cccc3cc(Br)cc(c23)C(=O)N1Nc1ccccc1	%	-9.54
Cc1ccc(-n2ncc3c(=O)[nH]cnc32)c(C)c1	%	-3.73
Cc1ccc(NS(=O)(=O)c2ccc(C(=O)NCCCN3CCOCC3)cc2)cc1	%	-3.65
CCOC(=O)c1c(NC(=O)CN2C(=O)NC3(CCC(C)CC3)C2=O)sc(C)c1CC (centres undefined)	%	2.47
CCC(CC)NC(=O)CSc1nnc(-c2c[nH]c3ccccc23)o1	%	12.5
CCCCn1c(N)c(N(CCOC)C(=O)COc2c(C)cccc2C)c(=O)[nH]c1=O	%	-3.47
O=C(NCCC1CCCCN1S(=O)(=O)c1cccs1)C(=O)Nc1ccc(F)cc1F (centres undefined)	%	-7.29
Nc1c(-c2ccccc2)nnn1Cc1ccccc1	%	17.5
CCCCn1c(N)c(N(CCOC)C(=O)c2sc3ccccc3c2Cl)c(=O)[nH]c1=O	%	1.82
CC(C)(C)S(=O)(=O)c1ccccc1-c1noc(-c2ccccc2)c1C(N)=O	%	-2.64
CCCC(=O)Nc1nc2ccc(NC(=O)c3c(F)c(F)c(OC)c(F)c3F)cc2s1	%	-10.9
O=C(CSc1nnc(-c2c[nH]c3ccccc23)o1)c1ccccc1	%	54.2
COc1ccc(C(=O)CCc2ccccc2O)c(OC)c1	%	58
Clc1ccc(Nc2ccc3ccccc3n2)cc1	%	5.69
CN(C(=O)CSc1nnc(-c2c[nH]c3ccccc23)o1)C1CCS(=O)(=O)C1 (centres undefined)	%	20.1
O=C(CCC(=O)OCc1ccc(Cl)cc1)Nc1ccccc1	%	10.6
COc1ccc(N2CCN(C(=O)CCNC(=O)c3ccc(Br)cc3)CC2)cc1	%	6.12
O=C(NCCN1CCOCC1)c1ccc2c(c1)N(Cc1ccc(Cl)cc1)CCS2	%	16.5
COc1cccc(N2CC(C(=O)NCc3n[nH]c(=O)c4ccccc34)CC2=O)c1 (centres undefined)	%	8.81
CCOc1ccc(N/C=C/C(=O)c2ccccc2)cc1	%	23.5
O=C(c1ccncc1)N1CCN(c2ccc3ccccc3n2)CC1	%	-4.23

---

test description: HSF-1 activators, primary screen, NIH3T3-HGL cells, MG132 stress, luminescence, single point (AID 504408);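 also: 0% = median of the neutral control wells and 100% = twice that signal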
experimental setup: NIH3T3-HGL HSF-1 luciferase reporter, MG132, 8 h; at 9 µM; 100% = twice DMSO control signal
Out of some 300,000 compounds screened, about 5,200 (1.7%) were called active.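 The calls were made as follows: active = mean replicate activation of at least 50% with a set share of replicates each reaching 50%; inconclusive = only one of those two conditions met; inactive = mean below 50% and too few replicates reaching it.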 Only a selection was taken, and actives are over-represented in it overall.
Possible outcomes: active, inactive

compound	category
COc1cc2ccccc2cc1C(=O)Nc1nc(C)c(C(C)=O)s1	inactive
Cc1cccc(NC(=O)NC(=S)NC(=O)c2ccccc2)c1	inactive
Cc1cccc(N2CC(C(=O)Nc3ccccc3N3CCCC3)CC2=O)c1C (stereo not drawn)	inactive
O=C(NCc1ccco1)c1sc2cccc(F)c2c1Cl	inactive
CC1=NOC(=O)/C1=C\c1ccccc1	active
COc1ccc(S(=O)(=O)N2CCCCC2)cc1NC(=O)C1CC(=O)N(c2ccc3c(c2)OCCO3)C1 (stereo not drawn)	inactive
CCn1c2ccccc2c2cc(NC(=O)COC(=O)c3ccccc3Br)ccc21	inactive
CCC(=O)/C(=C(/O)c1ccccc1)c1nc2ccccc2[nH]1	inactive
COc1ccc2oc(C(=O)NCc3ccco3)c(C)c2c1	inactive
NC(=O)C1CCN(C(=O)c2cn(-c3ccccc3)nc2-c2cccnc2)CC1	inactive
Cc1ccc(C(=O)Nc2ccc(C)c(S(=O)(=O)N(C)C)c2)s1	active
Cc1onc(C(=O)NCc2ccc(F)cc2)c1[N+](=O)[O-]	inactive
OCCN1CCN(C(=S)c2ccc(-c3ccccc3)cc2)CC1	inactive
O=C(NCCCN1CCCC1=O)c1cccc(S(=O)(=O)NCc2ccccc2)c1	inactive
CC1Cc2ccccc2N1C(=O)CSc1nc2ccccc2o1 (stereo not drawn)	active
NC(=O)c1ccccc1N=Cc1ccc2ccccc2c1	active
Cc1ccc(Cl)c(OCC(=O)N(C)CC(=O)Nc2ccc(N3CCOCC3)cc2)c1	inactive
CC(Oc1ccc(F)cc1)C(=O)Nc1ccccc1C(=O)NC1CC1 (stereo not drawn)	inactive
CC(=O)c1sc(NC(=O)CCCOc2ccccc2C)nc1C	inactive
CC(C)(C)c1ccc(C(=O)NCc2ccco2)cc1	inactive
N#Cc1c(N)n(CCOC(=O)c2ccc(Cl)cc2)c2nc3ccccc3nc12	inactive
Cc1cccc(NC(=S)Nc2ccc(Br)cc2)c1	inactive
O=C(/C(=C/c1cccc(Cl)c1)c1nc2ccccc2[nH]1)c1ccccc1	active
Cc1cccc(NC(=O)c2ccc([N+](=O)[O-])o2)c1	active
Cc1ccccc1Nc1nnc(C)c(=O)[nH]1	active
CCS(=O)(=O)c1ccc2oc(SCC(=O)N3c4ccccc4CC3C)nc2c1 (stereo not drawn)	inactive
CN(C)CCCn1c(N)c(C#N)c2nc(C#N)c(C#N)nc21	active
CCCn1c(CCNc2nc(-c3ccc(OC)cc3)cs2)nc2ccccc21	inactive
Cc1onc(-c2ccccc2Cl)c1C(=O)OCc1nnc(-c2ccccc2)o1	inactive
COc1ccccc1CNS(=O)(=O)c1cc2c3c(c1)CCC(=O)N3CCC2	inactive
Cc1onc(NC(=O)c2ccc([N+](=O)[O-])o2)c1Br	active
CC(C)(C)c1ccc(C(=O)NCCn2c(N)c(C#N)c3nc4ccccc4nc32)cc1	inactive
CCN(CC(=O)Nc1ccc(C)c(S(=O)(=O)N(C)C)c1)Cc1ccccc1	inactive
